test system: 889142-216-R-J1-PDC complex spheroid viability; experiment: Anticancer human tumor 889142-216-R-J1-PDC patient-derived bladder carcinoma cell line growth inhibition [POLQ]; details: curve of first compound; second compound 0.1 µM
pIC50: −log10 of the molar value.
MEASUREMENT TYPE: pIC50

{"MOLECULE": "CC1COCCN1c1cc(C2(S(C)(=N)=O)CC2)nc(-c2ccnc3[nH]ccc23)n1 (stereo unspecified) + Cc1cccc(N(C)C(=O)C2C(O)CCN2c2nc(C)cc(C(F)(F)F)c2C#N)c1", "REPORTED RELATION": "=", "RESULT VALUE": 5.00}
{"MOLECULE": "CC1COCCN1c1cc(C2(S(C)(=N)=O)CC2)nc(-c2ccnc3[nH]ccc23)n1 (stereo unspecified) + Nc1ccc(C#CCN(C(=O)Cc2ncc(C(F)(F)F)cc2C(F)(F)F)c2ccc(F)cc2)nn1", "REPORTED RELATION": "=", "RESULT VALUE": 5.59}
{"MOLECULE": "COc1cc2cc(C(=O)CCC(=O)O)sc2cc1OC + Nc1ccc(C#CCN(C(=O)Cc2ncc(C(F)(F)F)cc2C(F)(F)F)c2ccc(F)cc2)nn1", "REPORTED RELATION": "<", "RESULT VALUE": 5.00}
{"MOLECULE": "COc1cc2cc(C(=O)CCC(=O)O)sc2cc1OC + Cc1cccc(N(C)C(=O)C2C(O)CCN2c2nc(C)cc(C(F)(F)F)c2C#N)c1", "REPORTED RELATION": "<", "RESULT VALUE": 5.00}
{"MOLECULE": "C=CCn1c(=O)c2cnc(Nc3ccc(N4CCN(C)CC4)cc3)nc2n1-c1cccc(C(C)(C)O)n1 + Cc1cccc(N(C)C(=O)C2C(O)CCN2c2nc(C)cc(C(F)(F)F)c2C#N)c1", "REPORTED RELATION": "<", "RESULT VALUE": 6.00}
{"MOLECULE": "CC1COCCN1c1cc(-c2ccnn2C)c2ccnc(-c3ccn[nH]3)c2n1 (stereo unspecified) + Cc1cccc(N(C)C(=O)C2C(O)CCN2c2nc(C)cc(C(F)(F)F)c2C#N)c1", "REPORTED RELATION": "=", "RESULT VALUE": 6.84}

###

system: 889142-216-R-J1-PDC complex spheroid viability; assay: Anticancer human tumor 889142-216-R-J1-PDC cell line growth inhibition [POLQ]; settings: second compound 0.0316 µM; first compound 1 µM; stronger effect = lower value;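 also: spheroids exposed to compounds for seven days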;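 as to viability, T/C: 100% = DMSO vehicle control viability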
The molecules listed here are annotated with their viability, T/C.

{"MOLECULE": "Nc1ccn(C2OC(CO)C(O)C2(F)F)c(=O)n1 (stereo unspecified) + COC1C(OC(N)=O)C(O)C(Oc2ccc3c(O)c(NC(=O)c4ccc(O)c(CC=C(C)C)c4)c(=O)oc3c2C)OC1(C)C", "EXPERIMENTAL TARGET": "889142-216-R-J1-PDC complex spheroid viability", "viability, T/C / %": 49.7}
{"MOLECULE": "C#Cc1c(F)ccc2cc(O)cc(-c3ncc4c(N5CC6CCC(C5)N6)nc(OCC56CCCN5CC(F)C6)nc4c3F)c12 (stereo unspecified) + COC1C(OC(N)=O)C(O)C(Oc2ccc3c(O)c(NC(=O)c4ccc(O)c(CC=C(C)C)c4)c(=O)oc3c2C)OC1(C)C", "EXPERIMENTAL TARGET": "889142-216-R-J1-PDC complex spheroid viability", "viability, T/C / %": 88.7}
{"MOLECULE": "COc1cccc(OCCCN)c1-c1cc(Nc2cnc(C#N)cn2)n[nH]1 + Cc1cccc(N(C)C(=O)C2C(O)CCN2c2nc(C)cc(C(F)(F)F)c2C#N)c1", "EXPERIMENTAL TARGET": "889142-216-R-J1-PDC complex spheroid viability", "viability, T/C / %": 45}
{"MOLECULE": "CCc1cc2c(N3CCc4c(cc(Cn5ccnc5)cc4-c4cn(C)nc4C(F)(F)F)C3=O)cc(C)nc2c(OC)n1 + Nc1ccc(C#CCN(C(=O)Cc2ncc(C(F)(F)F)cc2C(F)(F)F)c2ccc(F)cc2)nn1", "EXPERIMENTAL TARGET": "889142-216-R-J1-PDC complex spheroid viability", "viability, T/C / %": 126}
{"MOLECULE": "COc1cc(C2c3cc4c(cc3C(OC3OC5COC(C)OC5C(O)C3O)C3COC(=O)C23)OCO4)cc(OC)c1O (stereo unspecified) + Cc1cccc(N(C)C(=O)C2C(O)CCN2c2nc(C)cc(C(F)(F)F)c2C#N)c1", "EXPERIMENTAL TARGET": "889142-216-R-J1-PDC complex spheroid viability", "viability, T/C / %": 53.5}
{"MOLECULE": "CC1COCCN1c1cc(C2(S(C)(=N)=O)CC2)nc(-c2ccnc3[nH]ccc23)n1 (stereo unspecified) + Cc1cccc(N(C)C(=O)C2C(O)CCN2c2nc(C)cc(C(F)(F)F)c2C#N)c1", "EXPERIMENTAL TARGET": "889142-216-R-J1-PDC complex spheroid viability", "viability, T/C / %": 76}
{"MOLECULE": "O=c1[nH]cc(F)c(=O)[nH]1 + Nc1ccc(C#CCN(C(=O)Cc2ncc(C(F)(F)F)cc2C(F)(F)F)c2ccc(F)cc2)nn1", "EXPERIMENTAL TARGET": "889142-216-R-J1-PDC complex spheroid viability", "viability, T/C / %": 80}
{"MOLECULE": "CC(C)n1c(=O)n(C)c2cnc3cc(F)c(-c4ccc(OCCCN5CCCCC5)nc4)cc3c21 + COC1C(OC(N)=O)C(O)C(Oc2ccc3c(O)c(NC(=O)c4ccc(O)c(CC=C(C)C)c4)c(=O)oc3c2C)OC1(C)C", "EXPERIMENTAL TARGET": "889142-216-R-J1-PDC complex spheroid viability", "viability, T/C / %": 86.5}
{"MOLECULE": "CC(C)n1c(=O)n(C)c2cnc3cc(F)c(-c4ccc(OCCCN5CCCCC5)nc4)cc3c21 + Cc1cccc(N(C)C(=O)C2C(O)CCN2c2nc(C)cc(C(F)(F)F)c2C#N)c1", "EXPERIMENTAL TARGET": "889142-216-R-J1-PDC complex spheroid viability", "viability, T/C / %": 84.4}
{"MOLECULE": "C=CC(=O)N1CCN(c2nc(=O)n(-c3c(C)ccnc3C(C)C)c3nc(-c4c(O)cccc4F)c(F)cc23)C(C)C1 (stereo unspecified) + COC1C(OC(N)=O)C(O)C(Oc2ccc3c(O)c(NC(=O)c4ccc(O)c(CC=C(C)C)c4)c(=O)oc3c2C)OC1(C)C", "EXPERIMENTAL TARGET": "889142-216-R-J1-PDC complex spheroid viability", "viability, T/C / %": 111}
{"MOLECULE": "CC(C)n1c(=O)n(C)c2cnc3cc(F)c(-c4ccc(OCCCN5CCCCC5)nc4)cc3c21 + Nc1ccc(C#CCN(C(=O)Cc2ncc(C(F)(F)F)cc2C(F)(F)F)c2ccc(F)cc2)nn1", "EXPERIMENTAL TARGET": "889142-216-R-J1-PDC complex spheroid viability", "viability, T/C / %": 79.2}
{"MOLECULE": "CCc1cc2c(N3CCc4c(cc(Cn5ccnc5)cc4-c4cn(C)nc4C(F)(F)F)C3=O)ccnc2c(OC)n1 + Cc1cccc(N(C)C(=O)C2C(O)CCN2c2nc(C)cc(C(F)(F)F)c2C#N)c1", "EXPERIMENTAL TARGET": "889142-216-R-J1-PDC complex spheroid viability", "viability, T/C / %": 125}
{"MOLECULE": "COc1cccc2c1C(=O)c1c(O)c3c(c(O)c1C2=O)CC(O)(C(=O)CO)CC3OC1CC(N)C(O)C(C)O1 (stereo unspecified) + COC1C(OC(N)=O)C(O)C(Oc2ccc3c(O)c(NC(=O)c4ccc(O)c(CC=C(C)C)c4)c(=O)oc3c2C)OC1(C)C", "EXPERIMENTAL TARGET": "889142-216-R-J1-PDC complex spheroid viability", "viability, T/C / %": 2.42}
{"MOLECULE": "COc1cccc(OCCCN)c1-c1cc(Nc2cnc(C#N)cn2)n[nH]1 + COC1C(OC(N)=O)C(O)C(Oc2ccc3c(O)c(NC(=O)c4ccc(O)c(CC=C(C)C)c4)c(=O)oc3c2C)OC1(C)C", "EXPERIMENTAL TARGET": "889142-216-R-J1-PDC complex spheroid viability", "viability, T/C / %": 36.2}
{"MOLECULE": "C=CC(=O)N1CCN(c2nc(=O)n(-c3c(C)ccnc3C(C)C)c3nc(-c4c(O)cccc4F)c(F)cc23)C(C)C1 (stereo unspecified) + Cc1cccc(N(C)C(=O)C2C(O)CCN2c2nc(C)cc(C(F)(F)F)c2C#N)c1", "EXPERIMENTAL TARGET": "889142-216-R-J1-PDC complex spheroid viability", "viability, T/C / %": 115}
{"MOLECULE": "O=C(Nc1ccc(O)c(NS(=O)(=O)c2ccc(F)cc2)c1)c1ccc(-c2ccccc2)cc1 + Cc1cccc(N(C)C(=O)C2C(O)CCN2c2nc(C)cc(C(F)(F)F)c2C#N)c1", "EXPERIMENTAL TARGET": "889142-216-R-J1-PDC complex spheroid viability", "viability, T/C / %": 134}
{"MOLECULE": "COc1cc2cc(C(=O)CCC(=O)O)sc2cc1OC + Nc1ccc(C#CCN(C(=O)Cc2ncc(C(F)(F)F)cc2C(F)(F)F)c2ccc(F)cc2)nn1", "EXPERIMENTAL TARGET": "889142-216-R-J1-PDC complex spheroid viability", "viability, T/C / %": 92.9}
{"MOLECULE": "Nc1ccn(C2OC(CO)C(O)C2(F)F)c(=O)n1 (stereo unspecified) + Nc1ccc(C#CCN(C(=O)Cc2ncc(C(F)(F)F)cc2C(F)(F)F)c2ccc(F)cc2)nn1", "EXPERIMENTAL TARGET": "889142-216-R-J1-PDC complex spheroid viability", "viability, T/C / %": 45.2}
{"MOLECULE": "CC1COCCN1c1cc(C2(S(C)(=N)=O)CC2)nc(-c2ccnc3[nH]ccc23)n1 (stereo unspecified) + COC1C(OC(N)=O)C(O)C(Oc2ccc3c(O)c(NC(=O)c4ccc(O)c(CC=C(C)C)c4)c(=O)oc3c2C)OC1(C)C", "EXPERIMENTAL TARGET": "889142-216-R-J1-PDC complex spheroid viability", "viability, T/C / %": 59.8}
{"MOLECULE": "COc1ccc([C@@H](O)c2cc(-c3ncnc4cc(N5CCOCC5)ccc34)c(F)cc2Cl)nn1 + COC1C(OC(N)=O)C(O)C(Oc2ccc3c(O)c(NC(=O)c4ccc(O)c(CC=C(C)C)c4)c(=O)oc3c2C)OC1(C)C", "EXPERIMENTAL TARGET": "889142-216-R-J1-PDC complex spheroid viability", "viability, T/C / %": 63}
{"MOLECULE": "O=c1[nH]cc(F)c(=O)[nH]1 + COC1C(OC(N)=O)C(O)C(Oc2ccc3c(O)c(NC(=O)c4ccc(O)c(CC=C(C)C)c4)c(=O)oc3c2C)OC1(C)C", "EXPERIMENTAL TARGET": "889142-216-R-J1-PDC complex spheroid viability", "viability, T/C / %": 75}
